Listed below: % Rmax hCD32a-R131 values for each entry.
# Assayed target: T1, CD32a-R131 (FcgRIIa-R131) (Homo sapiens, UniProt P12318, H167R)
# T1 sequence (P12318 34-217 H167R limits assumed): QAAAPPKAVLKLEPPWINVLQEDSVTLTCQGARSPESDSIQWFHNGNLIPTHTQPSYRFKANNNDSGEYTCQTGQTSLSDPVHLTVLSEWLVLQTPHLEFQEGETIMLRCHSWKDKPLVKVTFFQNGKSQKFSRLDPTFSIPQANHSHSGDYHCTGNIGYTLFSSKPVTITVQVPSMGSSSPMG
# Assay details: SPR, antibody binding to anti-his Fab captured FcgR-his (% Rmax)
# Assay conditions: 1 μM antibody
# output: bare number, implied unit %

Worked cases, % Rmax hCD32a-R131 given:
mAb6-IgG2.3 (protein, left off: another chain or arm of the molecule) constant: ASTKGPSVFPLAPCSRSTSESTAALGCLVKDYFPEPVTVSWNSGALTSGVHTFPAVLQSSGLYSLSSVVTVPSSNFGTQTYTCNVDHKPSNTKVDKTVERKSCVECPPCPAPPVAGPSVFLFPPKPKDTLMISRTPEVTCVVVDVSHEDPEVQFNWYVDGVEVHNAKTKPREEQFNSTFRVVSVLTVVHQDWLNGKEYKCKVSNKGLPAPIEKTISKTKGQPREPQVYTLPPSREEMTKNQVSLTCLVKGFYPSDIAVEWESNGQPENNYKTTPPMLDSDGSFFLYSKLTVDKSRWQQGNVFSCSVMHEALHNHYTQKSLSLSPGK; 14
mAb13-IgG2.3 (protein, left off: another chain or arm of the molecule) constant: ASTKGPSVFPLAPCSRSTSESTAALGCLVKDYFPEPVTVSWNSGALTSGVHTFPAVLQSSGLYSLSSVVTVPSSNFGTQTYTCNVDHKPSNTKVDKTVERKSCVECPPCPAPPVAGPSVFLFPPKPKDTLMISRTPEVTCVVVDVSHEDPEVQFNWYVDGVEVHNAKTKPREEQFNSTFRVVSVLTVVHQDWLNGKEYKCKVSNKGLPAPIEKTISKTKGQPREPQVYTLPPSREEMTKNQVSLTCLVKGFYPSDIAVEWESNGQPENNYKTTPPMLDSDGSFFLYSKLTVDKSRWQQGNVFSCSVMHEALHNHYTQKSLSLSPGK; 7

Prompt line: % Rmax hCD32a-R131 for mAb7-IgG2.5 (protein, left off: another chain or arm of the molecule) constant: ASTKGPSVFPLAPSSRSTSESTAALGCLVKDYFPEPVTVSWNSGALTSGVHTFPAVLQSSGLYSLSSVVTVPSSNFGTQTYTCNVDHKPSNTKVDKTVERKCCVECPPCPAPPVAGPSVFLFPPKPKDTLMISRTPEVTCVVVDVSHEDPEVQFNWYVDGVEVHNAKTKPREEQFNSTFRVVSVLTVVHQDWLNGKEYKCKVSNKGLPAPIEKTISKTKGQPREPQVYTLPPSREEMTKNQVSLTCLVKGFYPSDIAVEWESNGQPENNYKTTPPMLDSDGSFFLYSKLTVDKSRWQQGNVFSCSVMHEALHNHYTQKSLSLSPGK ?
Response line: 19
